# measured.target: antigen on NCI-H187 classic small cell lung carcinoma cells (ATCC Number: CRL-5804) recognised by PTA-2357
# measurement.description: competition flow cytometry on NCI-H187 cells against mouse PTA-2357; CHO-K1-derived
reported.metric: Relative IC50 (fold of chimeric PTA-2357)

[[record]]
binder = "PTA-2357 VH4/VK2 IgG1 antibody (antibody, V domains shown) VH: QVQLVQSGAEVKKPGASVKVSCKGSGYPFTDYTIHWVRQAPGQGLEWIGHISTYSGNTNNNQKFKGRATMTVDKSTSTAYMELRSLRSDDTAVYYCARGDYYGSFYKFEYWGQGTTVTVSS VL: DIKMTQSPSSLSASVGDRVTITCGASENIYGALNWFQRKPGKAPKLLIYGATNLADGMPSRFSGSGSGRDFTLTISSLQPEDFATYFCQNVLSIPYTFGQGTKLEIK"
relation_operator = "="
endpoint_value = 1.5

[[record]]
binder = "PTA-2357 VH4/VK1 IgG1 antibody (antibody, V domains shown) VH: QVQLVQSGAEVKKPGASVKVSCKGSGYPFTDYTIHWVRQAPGQGLEWIGHISTYSGNTNNNQKFKGRATMTVDKSTSTAYMELRSLRSDDTAVYYCARGDYYGSFYKFEYWGQGTTVTVSS VL: DIKMTQSPSSLSASVGDRVTITCGASENIYGALNWFQRKQGKAPKLLIYGATNLADGMPSRFSGSGSGRDFTLTISSLQPEDFATYFCQNVLSIPYTFGQGTQLEIK"
relation_operator = ">"
endpoint_value = 3

[[record]]
binder = "PTA-2357 VH5/VK2 IgG1 antibody (antibody, V domains shown) VH: QVQLVQSGAEVKKPGASVKVSCKGSGYPFTDYTIHWVRQAPGQGLEWIGHISTYSGNTNNNQKFKGRVTMTVDKSTSTAYMELRSLRSDDTAVYYCARGDYYGSFYKFEYWGQGTTVTVSS VL: DIKMTQSPSSLSASVGDRVTITCGASENIYGALNWFQRKPGKAPKLLIYGATNLADGMPSRFSGSGSGRDFTLTISSLQPEDFATYFCQNVLSIPYTFGQGTKLEIK"
relation_operator = "="
endpoint_value = 2.43

